- protocol summary: qHTS assay to identify small molecule agonists of the peroxisome proliferator-activated receptor delta (PPARd) signaling pathway - cell viability counter screen (AID 743211); also: nearly all actives have a fitted effect of over 55% in size
- settings: PPARd-bla HEK293H viability, CellTiter-Glo luminescence, 17 h; series mostly up to 62.6 µM
Inconclusive results are not listed. Calls of active or inactive are those of the source. Calls follow the shape of the dose curve; as a rule, active = well fitted cell-killing curve with a large enough effect in the repeat runs; inconclusive = weak or mixed curves; inactive = no such curve, though single readings can be large or run the other way.
Possible outcomes: active, inactive

molecule | discrete label
CC(C)(O)CCC(C)(C)O | inactive
COC(c1ccccc1)(c1ccccc1)[C@H](Oc1nc(C)cc(C)n1)C(=O)O | inactive
CC(C)(C)NCC(O)COc1ccccc1OCC1CCCO1 (stereo not given) | inactive
COC(=O)c1cccc(C(=O)OC)c1 | inactive
C/C=C/c1ccc(OCC)c(O)c1 | inactive
Cc1ccc(-c2cc(C(F)(F)F)nn2-c2ccc(S(N)(=O)=O)cc2)cc1 | active
Nc1ccc2cc3ccccc3cc2c1 | inactive
O=C(O)CCc1ccccc1 | inactive
O=C1OC2(c3ccc(O)cc3Oc3cc(O)ccc32)c2ccccc21 | inactive
C=CC(=O)OCCCCCCCC | inactive
CCC(CO)(CO)COCC(CC)(CO)CO | inactive
C=CS(=O)(=O)O | inactive
CC(C(O)c1ccc(O)cc1)N1CCC(Cc2ccccc2)CC1 (stereo not given) | inactive
CCc1ccc(C(c2ccc(CC)cc2)C(Cl)Cl)cc1 | inactive
c1ccc2cc3c(ccc4ccccc43)cc2c1 | inactive

----------
- protocol summary: qHTS assay for small molecule agonists of the antioxidant response element (ARE) signaling pathway (AID 743202); as to activation: % is scaled to controls: 0 for no effect and ±100 for the full control effect
- settings: HepG2 ARE-bla reporter, beta-lactamase FRET, 16 h; series mostly up to 73.3 µM
Inconclusive results are not listed. Active and inactive are the calls of the source. Calls follow the shape of the dose curve; as a rule, active = well fitted activation curve with a large enough effect in the signal ratio in the repeat runs (not every such curve was filed as active); inconclusive = weak or mixed curves, or effect the other way; inactive = no such curve, though single readings can be large or run the other way; the % refers to the signal ratio.
Possible outcomes: yes (1) = active, no (0) = inactive

compound | discrete label
CCc1cc(C(C)(C)C)c(O)c(C(C)(C)C)c1 | no (0)
NCCCCCC(=O)O | no (0)
C=CC(=O)OCCCCCCCC | no (0)
CC(C)CCOC(=O)c1ccc(N(C)C)cc1 | no (0)
CCC(C)(Oc1ccc(C2(c3ccc(OC(C)(CC)C(=O)O)cc3)CCCCC2)cc1)C(=O)O (configuration not stated) | no (0)
O=C(Oc1ccccc1)c1ccccc1O | no (0)
CC(C)(C)c1ccccc1 | no (0)
CCn1cc(C(=O)O)c(=O)c2cc(F)c(N3CCNC(C)C3)c(F)c21 (configuration not stated) | no (0)
O=Cc1ccc(Cl)cc1 | no (0)
O=Nc1ccc(Nc2ccccc2)cc1 | yes (1)
COc1ccc(COC(C)=O)cc1 | no (0)
COC(=O)/C=C/c1ccccc1 | no (0)
CCCC(=O)c1ccccc1 | no (0)
O=C1CC2(CCCC2)CC(=O)N1CCCCN1CCN(c2ncccn2)CC1 | yes (1)
CCC(CO)(CO)COCC(CC)(CO)CO | no (0)
CCN1CCCC1CNC(=O)c1cc(S(=O)(=O)CC)c(N)cc1OC (configuration not stated) | no (0)
O | no (0)
NCCO | no (0)
CCOc1ccccc1C(N)=O | no (0)
O=c1n(CC2CO2)c(=O)n(CC2CO2)c(=O)n1CC1CO1 (configuration not stated) | yes (1)
CC(C)CCOCc1ccccc1 | no (0)
CNC1(C)C2CCC(C2)C1(C)C (configuration not stated) | no (0)
